- System: MCF7
- Procedure details: Cytotoxicity against human MCF7 cells after 48 hrs by MTT assay
- Type: functional, cell-based
- Test context: MCF7, 48 h
Endpoint label: log10 of IC50 (log10 of the value in µM)

Compound: CCc1n(Cc2cc3ccccc3o2)cc[n+]1CC(=O)c1ccc(OC)cc1
Value observed: 0.48
//
Compound: CCc1n(Cc2cc3ccccc3o2)cc[n+]1CC(=O)c1ccc(Br)cc1
Value observed: 0.65
//
Compound: COc1ccc(C(=O)C[n+]2cn(Cc3cc4ccccc4o3)c3ccccc32)cc1
Value observed: 1.16
//
Compound: COc1ccc(C(=O)C[n+]2ccn(Cc3cc4ccccc4o3)c2C)cc1
Value observed: 0.16
//
Compound: Cc1n(Cc2cc3ccccc3o2)cc[n+]1C(C(=O)c1ccccc1)c1ccccc1 (stereo unspecified)
Value observed: 0.83
